Answer each item with its documented Z-AUC.
# assay-explanation: qHTS drug screen for cell cycle checkpoint inhibitors in PARPi-resistant BRCA-mutant ovarian cancer cell lines. (AID 1963452)
# setup-conditions: PEO1/OlaR viability, CellTiter-Glo luminescence, 96 h; stronger effect = lower value
Answers are plain numbers.

Below, each entry is followed by its recorded Z-AUC result.
Measured Z-AUC of `N#Cc1c(C2CCNCC2)cc(-c2c(O)cccc2OCC2CC2)nc1N` : 0.339

Measured Z-AUC of `NC(=O)Nc1sc(-c2ccc(F)cc2)cc1C(N)=O` : -1.29

Measured Z-AUC of `c1ccc2c(Oc3nc(Nc4ccc(N5CCOCC5)cc4)c4ncn(C5CCCCC5)c4n3)cccc2c1` : 1.71

Measured Z-AUC of `c1cc(CN2CCCNCCNCCCNCC2)ccc1CN1CCCNCCNCCCNCC1` : 0.916

Measured Z-AUC of `COc1cc2ncnc(Nc3cccc(Br)c3)c2cc1OC` : 0.281

Measured Z-AUC of `COc1cc(C(C)C)c(Oc2cnc(NC(CO)CO)nc2N)cc1I` : 0.743

Measured Z-AUC of `COc1cc2c(cc1OC)[C@@H]1C(=O)c3ccc4c(c3O[C@@H]1CO2)C=CC(C)(C)O4` : -0.868

Measured Z-AUC of `Oc1ccc([C@@H]2Oc3ccc(O)cc3[C@@H]3CCC[C@@H]32)cc1` : 0.648

List Z-AUC for every entry below, keeping the order given.
1. C[C@@H]1CC[C@@]2(OC1)OC1CC3C4CC=C5CC(O)CCC5(C)C4CCC3(C)C1[C@@H]2C (some centres undefined)
2. O=S(=O)(O)CCSSCCS(=O)(=O)O

Response given:
0.426
-0.0996

---

# assay-explanation: qHTS of pediatric cancer cell lines to identify multiple opportunities for drug repurposing: Primary screen for RD cells (AID 1347104); note: nearly all actives have a fitted effect of over 55% in size; note: potency is the fitted concentration of half-maximal effect
# setup-conditions: RD rhabdomyosarcoma viability, CellTiter-Glo luminescence, 48 h; series mostly up to 46 µM
Records with an inconclusive call do not appear. The source made the active and inactive calls. The call rests on the fitted dose curve; in most records, active means well fitted cell-killing curve with a large enough effect; inconclusive means small, poorly fitted or top-dose-only effect; inactive means flat fitted curve, though single readings scatter.
reported-property: Potency

Below, each entry is followed by its recorded Potency result.
Measured Potency of `COc1cc(C)c(C=CC(C)=CC=CC(C)=CC(=O)O)c(C)c1C` : inactive

Measured Potency of `Cc1ccc([N+](=O)[O-])cc1S(=O)(=O)N(C)N=Cc1cnc2ccc(Br)cn12` : 0.0743 µM (active)

Measured Potency of `O=C(NC1CC1)c1cccc(-c2ccc3c(NC(=O)C4CC4)n[nH]c3c2)c1` : 0.935 µM (active)

Measured Potency of `CCCCCCCCCCCCc1ccc(S(=O)(=O)Nc2nncs2)cc1` : inactive

Measured Potency of `COc1cc2ncnc(Nc3cccc(Br)c3)c2cc1OC` : 0.935 µM (active)

List Potency for every entry below, keeping the order given.
1. Cc1noc(-c2ccc(CSCCC(=O)O)cc2)c1NC(=O)OC(C)c1ccccc1Cl (stereo unspecified)
2. Cc1cc(-c2nnc3n2CCCCC3)c(C)n1-c1ccccc1
3. Nc1nc(=O)n([C@H]2CSC(CO)O2)cc1F (stereo partly specified)
4. COc1ccc(C(C)=O)c(O)c1
5. Cc1ncc(-c2ccnc(Nc3ccc(S(C)(=O)=O)cc3)n2)n1C(C)C

Response given:
inactive
inactive
inactive
16.6 µM (active)
6.62 µM (active)

Measured Potency of `Cc1ccc2nc(NCCN)c3ncc(C)n3c2c1` : 13.2 µM (active)
